Listing of recorded growth inhibition by entry.
# protocol-text: NCI Yeast Anticancer Drug Screen. Data for the cln2 rad14 strain (AID 165);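 also: 0% = growth equal to vehicle treated cultures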
# experimental-setup: S. cerevisiae cln2 rad14 strain, at 50.0 µM, active compounds read high
Compounds without any hit were thinned out: in the full panel of roughly 79,000, 15% have a hit.
Supply the numeric figure in %, leaving out any unit text.

{"columns": ["mol", "endpoint-unit", "growth inhibition"],
 "data": [
  ["O=C1C=C(Cl)C(=O)O1", "%", -9.1]
]}

Given `c1ccc2c(c1)CCc1ccccc1N2` , state its recorded growth inhibition.
6.45

Given `ON(Cc1ccccc1)Cc1ccccc1` , state its recorded growth inhibition.
12.8

Given `O=C1c2ccccc2C(=O)N1/N=C1/SC(=Nc2ccccc2)C(=Nc2ccccc2)N1c1ccccc1` , state its recorded growth inhibition.
26.4

Given `Cc1ccc2nc(CN(CCO)CCO)cc(=O)n2c1` , state its recorded growth inhibition.
4

Given `CC(=O)OC1=C(C)C2=C3OC(=O)C(C)=C3CC[C@@]2(C)CC1` , state its recorded growth inhibition.
19.4

Given `Cc1ccc(C(=N)c2ccccc2Cc2cccc3ccccc23)c2ccccc12` , state its recorded growth inhibition.
-36.9

Given `Fc1ccc(F)c(C(Nc2nncs2)Nc2nncs2)c1` , state its recorded growth inhibition.
2.4

Given `Cc1nc2c(=O)[nH]c(N)nc2[nH]c1=O` , state its recorded growth inhibition.
-30.4

Given `NC(=O)c1cc[cH-]c1.[Fe+2].c1cc[cH-]c1` , state its recorded growth inhibition.
-2.05

Given `O=C(N/N=C\c1ccc(Cl)cc1Cl)c1ccccc1S` , state its recorded growth inhibition.
-0.2

Given `CN1C=CC=CC1=C1C(=O)c2ccccc2C1=O` , state its recorded growth inhibition.
35.6
